test system: SARS-CoV-2; test: microbe, parasite or virus in culture; assay type: cell-based
property-name: EC50 (µM)
The figure you give is taken to be in µM; do not add the unit.

Query: Give recorded EC50 with SARS-CoV-2 for the following molecule: CCCCCCCCCCCCCCCCCCOC[C@@H](OCc1ccccc1)C(C)OP(=O)(O)OC[C@H]1O[C@@](C#N)(c2ccc3c(N)ncnn23)[C@H](O)[C@@H]1O (single isomer, unassigned)
Response: 9.5

====

system: MT-4 cells; assay: MT4 cytotoxicity analysis (CellTiter-Glo); type: cell-based; settings: human, 5 days
Here the recorded CC50 is given for each entry.
The figure you give is taken to be in µM; do not add the unit.

Query: Which measured CC50 value corresponds to CCCCCCCCCCCCCCCCCCOC[C@@H](OCc1ccccc1)C(C)OP(=O)(O)OC[C@H]1O[C@@](C#N)(c2ccc3c(N)ncnn23)[C@H](O)[C@@H]1O (single isomer, unassigned) [Example 13] ?
Response: 29

// provenance: patent US12208110B2
